Assay: Kinetic solubility of the compound in phosphate buffered saline at pH 7.4
Assay type: physicochemical
Details: read-out: Kinetic_solubility
Measurement Name: solubility kinetic

>>> print(df.to_string())
                            chemical_string    measurement_name  experimental_value
0  C=CC(=O)NC1CCN(S(=O)(=O)c2ccc(C(=O)NCCc3ccccc3)cc2)CC1  solubility kinetic          < 10 µg/mL
